Test system: NCI/ADR-RES ovarian
Assay: NCI tumour cell line growth inhibition, 48 h
// reported TGI for each item listed

Worked examples follow.
{"columns": ["compound", "experimental.system", "reported.result"],
 "data": [
  ["O=C(Nc1cccc2ccccc12)c1ccccc1", "NCI/ADR-RES ovarian", "> 100 µM"],
  ["CNC(=O)OC(COC)CN1CCN(c2ccccc2C)CC1 (centres undefined)", "NCI/ADR-RES ovarian", "> 10 µM"],
  ["Cc1ccc(S(=O)(=O)N/N=C2/CC3CCC4CC2CC34)cc1 (centres undefined)", "NCI/ADR-RES ovarian", "> 100 µM"]
]}

q: Data request, read-out TGI, for NNC(=O)c1ccc(OCc2nc3ccccc3[nH]2)cc1
a: > 100 µM

---

System: OVCAR-8 ovarian
Assay: NCI tumour cell line growth inhibition, 48 h
assay.metric: TGI (µM)
Response body: numeric value in µM, unit text excluded.

{"columns": ["molecule", "units", "reported.result"],
 "data": [
  ["CCOC(=O)/C=C/C(=O)[C@H](CC(C)C)NC(=O)[C@H](Cc1ccccc1)NC(=O)OCc1ccccc1", "µM", 60.4],
  ["CC1=C(C)C2(O)C(=C(C)C1=O)/C(=C(/O)c1ccccc1)c1nc3ccccc3n12 (stereo not drawn)", "µM", 41],
  ["O=[N+]([O-])/C(C(Cl)=C(Cl)Cl)=C(\\N1CCCCC1)n1nnc2ccccc21", "µM", 42.6],
  ["CCN(CC)CCCNc1[nH]ncc2c(C)c3nc4ccc(OC)cc4c3cc12", "µM", 2.01],
  ["COC(=O)[C@@H]1CC(C(CN)c2cn(C(=O)OC(C)(C)C)c3ccccc23)C(=O)N1C(=O)OC(C)(C)C (stereo partly drawn)", "µM", 55.8],
  ["COc1ccc(/C=C\\c2cc(OC)c(OC)c(OC)c2)cc1OCC(=O)Nc1ccc2nc(C)sc2c1", "µM", 5.41]
]}

q: What value of TGI has been reported for the following molecule? COc1ccc2c(c1)c(=O)c1c(NCCN(C)C)ccc3nnn2c31
a: 13.6

---

Tested on: EKVX NSCLC
Assay: NCI tumour cell line growth inhibition, 48 h
Reported TGI values for a set of compounds

{"columns": ["compound", "TGI"],
 "data": [
  ["COc1cccc2c1C(=O)OC2c1cccc2ccccc12 (stereo not drawn)", "> 100 µM"],
  ["COc1ccc2nc3n(c2c1)C(=O)c1ccccc1-3", "> 100 µM"]
]}

Would you kindly look at the next entry?
q: Please tell me: TGI of COc1cc(C2c3cc4c(cc3[C@@H](Oc3ccc(F)cc3)C3COC(=O)[C@H]23)OCO4)cc(OC)c1O (stereo partly drawn) , system EKVX NSCLC?
a: > 100 µM

---

System: U251 CNS
Assay: NCI tumour cell line growth inhibition, 48 h
assay.metric: TGI

{"columns": ["molecule", "TGI"],
 "data": [
  ["Cc1ccc(NC(=O)/C(=N/N(C)C)C(C2OC(=O)c3ccccc32)[N+](=O)[O-])cc1 (stereo unspecified)", "> 100 µM"],
  ["C=CCOC(=O)C1CCC(=O)N1C(=O)C(Cl)Cl (stereo unspecified)", "> 100 µM"],
  ["Oc1[nH]c2ccccc2c1N=Nc1c(F)c(F)c(F)c(F)c1F", "> 100 µM"],
  ["O=C1CSC2=NC3=C(CSC/C3=C\\c3ccccc3)C(c3ccccc3)N12 (stereo unspecified)", "> 100 µM"],
  ["COc1cc(C2C3=C(COC3=O)N(CCO)c3cc4c(cc32)OCO4)cc(OC)c1O (stereo unspecified)", "> 50 µM"]
]}

q: Request: TGI, test system U251 CNS, entry NNC(=O)c1ccc(OCc2nc3ccccc3[nH]2)cc1
a: > 100 µM

---

# reported TGI; entries follow
Tested on: TK-10 renal
Test: NCI tumour cell line growth inhibition, 48 h

{"columns": ["molecule", "TGI"],
 "data": [
  ["COC1OC(C)C2OC(C)(C)OC2C1OC(C)=O (stereo not drawn)", "> 100 µM"],
  ["CNS(=O)(=O)OCC1OC(n2cnc3c(N)ncnc32)C(O)C1O (stereo not drawn)", "> 100 µM"]
]}

Next molecule, TGI to be filled in.
q: Entry CCCC1(CCC)c2cc(/C=N\O)ccc2-c2ccc(-c3ccc(C(C)(C)C)cc3)cc21 has what TGI?
a: > 100 µM

---

Tested on: A498 renal
Assay: NCI tumour cell line growth inhibition, 48 h; in the data active = GI50 below about 0.43 µM; inactive = the rest
Outcome (select one): active, inactive

{"columns": ["molecule", "category.label"],
 "data": [
  ["CN1CCN(Cc2ccc3c(NNC(=O)c4ccccc4)nc4cc(F)ccc4n23)CC1", "inactive"]
]}

q: For this molecule, state the assay outcome: O=C(/C=C/C12c3ccccc3C(c3ccccc31)C1C(=O)NC(=O)C12)c1ccc(Cl)cc1 (configuration not stated)
a: inactive

q: Dear colleague, could you share the recorded outcome for O=C(Nc1cc(Oc2cc(F)c(NC(=O)C3(C(=O)Nc4ccc(F)cc4)CC3)cc2F)ccn1)C1CC1 when you have a moment?
a: inactive

q: Would you mind telling me which call this test gave O=c1oc2ccc(-c3ccc(F)cc3F)cc2c(=O)n1-c1ccc(Cl)c(C(F)(F)F)c1 ?
a: inactive

q: // return assay outcome for CCOC(=O)c1cnn2c3ccccc3n(S(=O)(=O)c3ccc(OC)cc3)c12
a: active

q: Could you kindly confirm the outcome this assay logged for COc1cc(/C=C/c2cc(/C=C/c3ccc(O)c(OC)c3)n(C(=O)Nc3ccc(Cl)cc3)n2)ccc1O ?
a: inactive

q: I'd appreciate the recorded outcome for CN(C)c1ccc(/C=c2/c3ccccc3n3c2c2cc(F)ccc2[n+]3C)cc1 from this test.
a: inactive

---

Tested on: DMS 273 small cell lung
Assay: NCI tumour cell line growth inhibition, 48 h
Listing of recorded TGI by entry.

{"columns": ["compound", "TGI"],
 "data": [
  ["Cc1nc2sccn2c1C(=O)NC(=O)Nc1ccc(Cl)cc1", "> 100 µM"],
  ["CC[N+](C)(CC)CC(C)(C)C(=O)/C=C/c1ccc(/C=C/C(=O)C(C)(C)C[N+](C)(CC)CC)cc1", "> 100 µM"],
  ["COc1ccc(C(=O)N/N=C/c2c(C)n(C)n(-c3ccccc3)c2=O)cc1", "> 100 µM"],
  ["OC12c3ccccc3C3CCC4(OCCO4)C3C1c1ccccc12 (stereo unspecified)", "> 100 µM"],
  ["CCOc1ccc(O)cc1[P+](c1ccccc1)(c1ccccc1)c1ccccc1", "10.1 µM"],
  ["COc1cc(C2c3cc4c(cc3[C@@H](Oc3ccc(F)cc3)C3COC(=O)[C@H]23)OCO4)cc(OC)c1O (stereo partly specified)", "47.2 µM"]
]}

q: Give the reported TGI for Cc1ccc(C)c(NC(=O)CC2SC(=Nc3ccccc3Cl)NC2=O)c1 (stereo unspecified) (system: DMS 273 small cell lung).
a: > 100 µM

q: Can you look up TGI on DMS 273 small cell lung for COc1ccc(C2C3CCCC(C3=O)C(c3ccc(OC)cc3)N2N=O)cc1 (stereo unspecified) ?
a: 43.6 µM

q: Hello, I am looking for reported TGI with DMS 273 small cell lung for CN(/N=C/c1cccc2cccnc12)c1c([N+](=O)[O-])cc([N+](=O)[O-])cc1[N+](=O)[O-] . Could you help?
a: > 100 µM

q: Item: O=C(OC/C=C1C=C(OC(=O)c2ccccc2)/C(=N/N(C(=O)c2ccccc2)c2ccccc2)O\1)c1ccccc1 Test system: DMS 273 small cell lung Read-out: TGI Value: ?
a: 24.1 µM

q: What is its TGI for DMS 273 small cell lung? Entry: O=C1C2C3C=C4c5ccccc5N(c5ccccc5)C4(C2C(=O)N1c1ccc(Br)cc1)[C@H]1C(=O)N(c2ccc(Br)cc2)C(=O)[C@@H]31 (stereo partly specified)
a: > 100 µM

---

Test system: HOP-62 NSCLC
Assay: NCI tumour cell line growth inhibition, 48 h; in the data active = GI50 below about 0.43 µM; inactive = the rest
Answer with one of the outcomes active, inactive

{"columns": ["compound", "category.label"],
 "data": [
  ["Nc1nc(=O)n([C@@H]2CS[C@H](CO)O2)cc1F", "inactive"],
  ["COc1cc(-n2ccnc2)cc(OC)c1OC", "inactive"],
  ["CN1CCN(Cc2ccc3c(NNC(=O)c4ccccc4)nc4cc(F)ccc4n23)CC1", "active"]
]}

q: Outcome logged for CCS(=O)(=O)c1ccc(OC)c(Nc2ncc(-c3ccccc3Cl)o2)c1 in this assay:
a: inactive

---

Test system: SW-620 colon
Assay: NCI tumour cell line growth inhibition, 48 h
# TGI per record follows

{"columns": ["compound", "experimental.system", "reported.result"],
 "data": [
  ["C(=Nc1ccc(-c2nc3ccccc3[nH]2)cc1)c1ccco1", "SW-620 colon", "> 100 µM"]
]}

q: Can you look up the measured TGI of O=C1c2ccccc2C(=O)c2sc(Nc3ccccc3Cl)nc21 for me?
a: 8.97 µM

q: Please look up its TGI: COc1ccc2c(c1)c(=O)c1c(NCCN(C)C)ccc3nnn2c31
a: 9.11 µM

q: Give its TGI value. Item: CCOC(=O)c1cc(C2CCN(c3ccccc3)C2=O)c(C(=O)/C=C(/C)N)[nH]1 (stereo not drawn)
a: > 100 µM

q: Entry COc1nc2c(c(=O)n1C)N=C(c1ccc(Cl)cc1)CC(c1ccccc1)N2 (stereo not drawn) : reported TGI = ?
a: > 100 µM

q: Reported TGI for COc1ccc(C(CC(=O)c2ccccc2)C(C(=O)c2ccccc2)C(c2ccc(OC)cc2)C2C(=O)NC(=S)NC2=O)cc1 (stereo not drawn) : what is it?
a: 39.9 µM

q: Quick check: TGI of CCn1c2ccccc2c2ccc(C3C(C(=O)OC)=C(C)NC(C)=C3C(=O)OC)cc21 ?
a: > 100 µM

q: // query TGI value for entry CC1(C)CC(=O)c2c(nc3c(ccc4ccccc43)c2-c2ccc(NC(=O)CCCCC(=O)Nc3ccc(-c4c5c(nc6c4ccc4ccccc46)CC(C)(C)CC5=O)cc3)cc2)C1
a: > 100 µM
